System: MDA-MB-231 cells
Protocol Text: Vacuolation of MDA-MB-231 cells caused by inhibition of compounds on PIKfyve (microscopy); further: key: '+' represents the degree of vacuolation; ++: more '+' indicates more obvious vacuolation; +++: more '+' indicates more obvious vacuolation; ++++: more '+' indicates more obvious vacuolation; '−' represents no vacuolation
Assay type: cell-based
Measurement Conditions: MDA-MB-231 cells, 10 μM, 24 h
Metric: degree of vacuolation, 10 μM, 24 h

So what does the record say about degree of vacuolation, 10 μM, 24 h for `Cc1ccc(C(=O)Nc2cccc(C(F)(F)F)c2)cc1Nc1nc(-c2ccncc2)nc2cc[nH]c12` ? ++

Likewise for `Cc1ccc(NC(=O)c2cccc(C(F)(F)F)c2)cc1Nc1nc(-c2cccnc2)c2[nH]ccc2n1` ? +++

Likewise for `Cc1ccc(C(=O)Nc2ccc(CN3CCN(C)CC3)c(C(F)(F)F)c2)cc1Nc1cc(-c2ccncc2)nc2[nH]ccc12` ? +

Likewise for `Cc1ccc(NC(=O)c2cccc(C(F)(F)F)c2)cc1Nc1cc(-c2ccncc2)c2cc[nH]c2n1` ? ++

Likewise for `Cc1ccc(C(=O)Nc2ccc(CN3CCN(C)CC3)c(C(F)(F)F)c2)cc1Nc1nc(-c2cccnc2)nc2ccn(C)c12` ? −

Turning to the following compound.
So what does the record say about degree of vacuolation, 10 μM, 24 h for `Cc1ccc(C(=O)Nc2cccc(C(F)(F)F)c2)cc1Nc1nc(-c2ccccc2)nc2c1cnn2C` ? −
